target: BCLXL WT (Homo sapiens (Human)); assay: TR-FRET competitive binding assay, BCLXL WT; details: ratio Ki BCLxL / Ki BCL2 WT
Sequence (Q07817 other isoform, or with tags, fused parts or gaps): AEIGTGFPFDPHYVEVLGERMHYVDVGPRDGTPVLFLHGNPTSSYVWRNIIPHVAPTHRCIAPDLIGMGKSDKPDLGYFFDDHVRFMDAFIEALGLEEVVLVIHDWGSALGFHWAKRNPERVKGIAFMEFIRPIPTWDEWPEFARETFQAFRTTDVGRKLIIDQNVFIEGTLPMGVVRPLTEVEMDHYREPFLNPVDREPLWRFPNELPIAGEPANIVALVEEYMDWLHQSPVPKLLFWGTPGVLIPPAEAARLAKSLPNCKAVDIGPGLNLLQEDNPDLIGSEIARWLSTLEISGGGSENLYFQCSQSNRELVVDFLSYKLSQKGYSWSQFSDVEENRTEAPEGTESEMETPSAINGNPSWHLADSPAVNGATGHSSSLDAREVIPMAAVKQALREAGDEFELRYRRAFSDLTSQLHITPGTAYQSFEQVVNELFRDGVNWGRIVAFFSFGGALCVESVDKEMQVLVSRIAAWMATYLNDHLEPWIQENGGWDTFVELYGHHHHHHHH
RECORDED_METRIC: TR_FRET EKI BCLxL/WT selectivty ratio

>  <COMPOUND>
Cc1c(C(=O)N(c2ccccc2)c2cnn(C(F)F)c2)cc(-c2cc3c(cc2C(=O)N2Cc4ccccc4C[C@H]2C)CN(C(=O)Cc2ccc(OCCN4CCOCC4)cc2)CC3)n1C [Example 190]

>  <TR_FRET EKI BCLxL/WT selectivty ratio>
342.7

$$$$
>  <COMPOUND>
Cc1c(C(=O)N(c2ccccc2)c2cnc3c(cnn3C)c2)cc(-c2cc3c(cc2C(=O)N2Cc4ccccc4C[C@H]2C)CN(C(=O)Cc2ccc(OCCN4CCOCC4)cc2F)CC3)n1C [Example 194]

>  <TR_FRET EKI BCLxL/WT selectivty ratio>
115.0

$$$$
>  <COMPOUND>
Cc1c(N(C(=O)c2cc(-c3cc4c(cc3C(=O)N3Cc5ccccc5C[C@H]3C)CN(C(=O)Cc3ccc(OCCN5CCO[C@@H](C)C5)cc3)CC4)n(C)c2C)c2ccc(O)cc2)cc(C#N)n1C [Example 57]

>  <TR_FRET EKI BCLxL/WT selectivty ratio>
34.7

$$$$
>  <COMPOUND>
Cc1c(N(C(=O)c2cc(-c3cc4c(cc3C(=O)N3Cc5ccccc5C[C@H]3C)CN(C(=O)Cc3ccc(F)cc3F)CC4)n(C)c2C)c2ccc(O)cc2)cc(C#N)n1C [Example 11]

>  <TR_FRET EKI BCLxL/WT selectivty ratio>
14.1

$$$$
>  <COMPOUND>
Cc1c(C(=O)N(c2ccc(O)cc2)c2cc(C#N)n(C(F)F)c2C)cc(-c2cc3c(cc2C(=O)N2Cc4ccccc4C[C@H]2CN2CCCCC2)CN(C(=O)Cc2ccc(OCCN(C)C4CC4)cc2)CC3)n1C [Example 163]

>  <TR_FRET EKI BCLxL/WT selectivty ratio>
51.9

$$$$
>  <COMPOUND>
Cc1c(N(C(=O)c2cc(-c3cc4c(cc3C(=O)N3Cc5ccccc5C[C@H]3C)CN(C(=O)Cc3ccc(OCCN5CCOCC5)cc3Cl)CC4)n(C)c2C)c2ccc(O)cc2)cc(C#N)n1C [Example 46]

>  <TR_FRET EKI BCLxL/WT selectivty ratio>
10.7

$$$$

a. Cc1c(N(C(=O)c2cc(-c3cc4c(cc3C(=O)N3Cc5ccccc5C[C@H]3CN3CCC(F)CC3)CN(C(=O)Cc3ccc(OCCN5CCOCC5)cc3F)CC4)n(C)c2C)c2ccc(O)cc2)cc(C#N)n1C [Example 86]
b. Cc1c(C(=O)N(c2ccccc2)c2cnn(C(F)F)c2)cc(-c2cc3c(cc2C(=O)N2Cc4ccccc4C[C@H]2C)CN(C(=O)Cc2ccc(C#CCN4CCOCC4)cc2)CC3)n1C [Example 212]
Input line: Field: lower recorded TR_FRET EKI BCLxL/WT selectivty ratio (choose a or b ) Give the label of your selection.
Output line: a
(a: 12.3, b: 104.3)

A. Cc1c(C(=O)N(c2ccc(O)cc2)c2cnn3c2CCCC3)cc(-c2cc3c(cc2C(=O)N2Cc4ccccc4C[C@H]2C)CN(C(=O)Cc2ccc(OCCN4CCOCC4)cc2)CC3)n1C [Example 147]
B. Cc1c(N(C(=O)c2cc(-c3cc4c(cc3C(=O)N3Cc5ccccc5C[C@H]3CN3CCCCC3)CN(C(=O)Cc3ccc(OCCN(C)C5COC5)cc3F)CC4)n(C)c2C)c2ccc(O)cc2)cc(C#N)n1C [Example 105]
Input line: Two entries are listed, A and B . Which one carries the higher TR_FRET EKI BCLxL/WT selectivty ratio? Give the label of your selection.
Output line: B
(B: 32.7, A: 17.2)

----------
molecular target: BCLXL WT (Homo sapiens (Human))
pKi: −log10 of the molar value.
RECORDED_METRIC: pKi

Consider the reported pKi for these molecules:
>  <MOLECULE>
COc1ccc(N(C(=O)c2cc(-c3cc4c(cc3C(=O)N3Cc5ccccc5C[C@H]3CN3CCCCC3)CN(C(=O)Cc3ccc(OCCN5CCOCC5)cc3F)CC4)n(C)c2C)c2ccc(O)cc2)cn1

>  <pKi>
8.00

$$$$
>  <MOLECULE>
Cc1c(N(C(=O)c2cc(-c3cc4c(cc3C(=O)N3Cc5ccccc5C[C@H]3CN3CCCCC3)CN(C(=O)Cc3ccc(OCCN5CCOCC5)cc3F)CC4)n(C)c2C)c2ccccc2)cc(C#N)n1C

>  <pKi>
8.07

$$$$
>  <MOLECULE>
Cc1c(N(C(=O)c2cc(-c3cc4c(cc3C(=O)N3Cc5ccccc5C[C@H]3C)CN(C(=O)Cc3ccc(OCCN5C[C@H](C)O[C@@H](C)C5)cc3)CC4)n(C)c2C)c2ccc(O)cc2)cc(C#N)n1C (single isomer, unassigned)

>  <pKi>
8.52

$$$$

I. Cc1c(N(C(=O)c2cc(-c3cc4c(cc3C(=O)N3Cc5ccccc5C[C@H]3C)CN(C(=O)Cc3ccc(OCCN5CCSCC5)cc3)CC4)n(C)c2C)c2ccc(O)cc2)cc(C#N)n1C
II. Cc1c(C(=O)N(c2ccc(O)cc2)c2cnn(CC(C)C)c2)cc(-c2cc3c(cc2C(=O)N2Cc4ccccc4C[C@H]2C)CN(C(=O)Cc2ccc(OCCN4CCOCC4)cc2)CC3)n1C
Input line: Two entries are listed, I and II . Which one carries the higher pKi? Give the label of your selection.
Output line: I
(I: 8.59, II: 8.11)

----------
target: BCL2 D103Y (Homo sapiens, UniProt P10415, D103Y); experiment: TR-FRET competitive binding assay, BCL2 D103Y; conditions: Ki determined from IC50, read-out: TR_FRET EKI_Bcl2 D103Y
RECORDED_METRIC: Ki (nM)

>  <INPUT_SMILES>
Cc1c(C(=O)N(c2ccccc2)c2cnn(C(F)F)c2)cc(-c2cc3c(cc2C(=O)N2Cc4ccccc4C[C@H]2C)CN(C(=O)Cc2ccc(OCCN4CCOCC4)cc2)CC3)n1C

>  <TARGET_ENTITY>
BCL2 D103Y (Homo sapiens, UniProt P10415, D103Y)

>  <Ki, nM>
0.12

$$$$

1. Cc1c(C(=O)N(c2ccccc2)c2cnn(C)c2)cc(-c2cc3c(cc2C(=O)N2Cc4ccccc4C[C@H]2C)CN(C(=O)Cc2cccc(C4CCN(C)CC4)c2)CC3)n1C
2. COCC(=O)N1CCc2cc(-c3cc(C(=O)N(c4ccccc4)c4cc(C#N)n(C)c4C)c(C)n3C)c(C(=O)N3Cc4ccccc4C[C@H]3CN3CCCCC3)cc2C1
Input line: Field: lower recorded Ki (choose 1 or 2 ) Give the label of your selection.
Output line: 1
(1: 0.33 nM, 2: 1.99 nM)

----------
Biological target: BCL2 D103Y (Homo sapiens, UniProt P10415, D103Y)
Experiment: TR-FRET competitive binding assay, BCL2 D103Y
Details: Ki determined from IC50, read-out: TR_FRET EKI_Bcl2 D103Y
Experimental: The relative binding potency of each compound was determined in a competitive binding assay using time resolved-fluorescence resonance energy transfer (TR-FRET). […] The degree of binding or corresponding compound inhibition can be quantified by the TR-FRET signal between the terbium donor and fluorescein acceptor. […] TR-FRET measurements were performed on a Biotek Synergy Neo plate reader. […] The TR-FRET signal was calculated as the emission-ratio at 520 nm over 495 nm. […]
RECORDED_METRIC: Ki (nM)

>  <COMPOUND>
COc1cc(OCCN2CCOCC2)ccc1CC(=O)N1CCc2cc(-c3cc(C(=O)N(c4ccc(O)cc4)c4cc(C#N)n(C)c4C)c(C)n3C)c(C(=O)N3Cc4ccccc4C[C@H]3CN3CCCCC3)cc2C1 [Example 114]

>  <TARGET_ENTITY>
BCL2 D103Y (Homo sapiens, UniProt P10415, D103Y)

>  <Ki, nM>
0.1

$$$$

P. Cc1c(N(C(=O)c2cc(-c3cc4c(cc3C(=O)N3Cc5ccccc5C[C@H]3C)CN(C(=O)Cc3ccc(OCCN5CCOCC5)cc3Cl)CC4)n(C)c2C)c2ccc(O)cc2)cc(C#N)n1C [Example 46]
Q. Cc1c(C(=O)N(c2ccc(O)cc2)c2cnn(C)c2)cc(-c2cc3c(cc2C(=O)N2Cc4ccccc4C[C@H]2C)CN(C(=O)Cc2ccc(OCCN4CCOCC4)cc2F)CC3)n1C [Example 233]
Input line: Field: lower recorded Ki (choose P or Q ) Give the label of your selection.
Output line: Q
(Q: 0.08 nM, P: 0.23 nM)

a. Cc1c(C(=O)N(c2ccccc2)c2cnn(C)c2)cc(-c2cc3c(cc2C(=O)N2Cc4ccccc4C[C@H]2C)CN(C(=O)Cc2cccc(N4CC5(CN(C)C5)C4)c2)CC3)n1C [Example 217]
b. Cc1c(N(C(=O)c2cc(-c3cc4c(cc3C(=O)N3Cc5ccccc5C[C@H]3C)CN(C(=O)Cc3cccc(N5CCOCC5)c3)CC4)n(C)c2C)c2ccc(O)cc2)cc(C#N)n1C [Example 6]
Input line: Field: lower recorded Ki (choose a or b ) Give the label of your selection.
Output line: a
(a: 0.09 nM, b: 0.67 nM)

All figures here come from patent US20250179047A1.
